# MEASUREMENT TARGET: PI3Kα (p110α/p85α) (Homo sapiens, UniProt P42336)
# Sequence (P42336 whole entry): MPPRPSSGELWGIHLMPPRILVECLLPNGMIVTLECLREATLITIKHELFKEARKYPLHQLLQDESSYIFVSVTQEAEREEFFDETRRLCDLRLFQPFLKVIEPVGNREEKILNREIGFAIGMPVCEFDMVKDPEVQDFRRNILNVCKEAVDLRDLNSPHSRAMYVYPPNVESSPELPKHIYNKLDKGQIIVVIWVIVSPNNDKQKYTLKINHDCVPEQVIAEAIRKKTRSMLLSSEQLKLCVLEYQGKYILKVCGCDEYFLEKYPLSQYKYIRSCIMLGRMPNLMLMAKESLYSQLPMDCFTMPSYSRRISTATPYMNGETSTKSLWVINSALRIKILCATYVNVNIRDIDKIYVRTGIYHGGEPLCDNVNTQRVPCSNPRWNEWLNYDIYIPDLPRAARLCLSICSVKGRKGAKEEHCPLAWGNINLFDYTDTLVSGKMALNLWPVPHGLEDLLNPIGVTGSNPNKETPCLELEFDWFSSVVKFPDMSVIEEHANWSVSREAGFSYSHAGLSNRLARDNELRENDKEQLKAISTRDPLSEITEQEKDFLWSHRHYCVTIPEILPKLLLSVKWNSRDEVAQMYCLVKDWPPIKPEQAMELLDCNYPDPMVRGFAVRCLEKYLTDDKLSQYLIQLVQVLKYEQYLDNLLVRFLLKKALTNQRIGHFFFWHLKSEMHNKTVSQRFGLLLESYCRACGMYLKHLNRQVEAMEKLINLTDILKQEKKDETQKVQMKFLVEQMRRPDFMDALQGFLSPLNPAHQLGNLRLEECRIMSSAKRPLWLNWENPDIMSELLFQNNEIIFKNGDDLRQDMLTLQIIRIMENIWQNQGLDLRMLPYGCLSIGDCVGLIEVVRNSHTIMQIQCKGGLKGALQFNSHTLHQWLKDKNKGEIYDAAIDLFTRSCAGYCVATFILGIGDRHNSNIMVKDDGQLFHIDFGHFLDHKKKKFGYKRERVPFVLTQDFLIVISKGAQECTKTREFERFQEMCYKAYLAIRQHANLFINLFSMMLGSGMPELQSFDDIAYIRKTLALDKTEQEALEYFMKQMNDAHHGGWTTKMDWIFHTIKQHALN
# Sequence (P27986 whole entry partner): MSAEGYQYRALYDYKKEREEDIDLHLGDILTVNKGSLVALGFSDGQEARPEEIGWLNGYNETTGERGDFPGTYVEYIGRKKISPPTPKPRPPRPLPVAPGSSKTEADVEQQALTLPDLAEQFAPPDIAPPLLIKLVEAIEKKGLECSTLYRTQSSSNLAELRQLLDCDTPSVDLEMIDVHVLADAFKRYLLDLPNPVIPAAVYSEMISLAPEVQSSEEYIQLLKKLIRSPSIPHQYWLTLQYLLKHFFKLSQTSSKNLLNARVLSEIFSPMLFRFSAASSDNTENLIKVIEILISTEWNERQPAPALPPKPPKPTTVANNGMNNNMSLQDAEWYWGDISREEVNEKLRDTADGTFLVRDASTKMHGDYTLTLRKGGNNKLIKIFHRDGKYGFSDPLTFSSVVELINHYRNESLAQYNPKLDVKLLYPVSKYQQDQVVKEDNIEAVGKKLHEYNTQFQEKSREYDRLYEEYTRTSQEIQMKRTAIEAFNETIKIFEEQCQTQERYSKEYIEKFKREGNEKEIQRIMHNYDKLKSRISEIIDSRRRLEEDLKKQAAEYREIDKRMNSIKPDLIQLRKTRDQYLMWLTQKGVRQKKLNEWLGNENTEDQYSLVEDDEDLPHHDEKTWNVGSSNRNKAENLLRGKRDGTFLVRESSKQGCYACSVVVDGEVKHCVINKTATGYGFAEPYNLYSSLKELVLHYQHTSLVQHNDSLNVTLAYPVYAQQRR
# PROTOCOL SUMMARY: HTRF assay, potency against active PI3Kα
# CONDITION DETAILS: HTRF; [ATP]=50 μM, [di-C8-PIP2]=10 μM; 30 min pre-incubation; read-out: PI3Kα Inhibition
In this section, each of the molecules is paired with its reported IC50.

For orientation, consider the following solved cases.
- CPD SMILES: "C/C=C/C(=O)CCC(=O)NCCS(=O)(=O)N1CCN(Cc2cc3nc(-c4cccc5[nH]ncc45)nc(N4CCOCC4)c3s2)CC1"
  IC50: "100 to 1000 nM"
- CPD SMILES: "C/C=C/C(=O)CCC(=O)NCC(=O)N1CCN(Cc2cc3nc(-c4cccc(O)c4)nc(N4CCOCC4)c3s2)CC1"
  IC50: "< 10 nM"
- CPD SMILES: "C/C(=C\\c1ccccc1)C(=O)CCC(=O)N1CCN(Cc2cc3nc(-c4cccc5[nH]ncc45)nc(N4CCOCC4)c3s2)CC1"
  IC50: "100 to 1000 nM"
- CPD SMILES: "C=CC(=O)NCC12CCC(c3cc4nc(-c5cccc6[nH]ncc56)nc(N5CCOCC5)c4s3)(CC1)OC2"
  IC50: "100 to 1000 nM"
- CPD SMILES: "O=C(/C=C/c1ccccn1)CCC(=O)N1CCN(Cc2cc3nc(-c4cccc5[nH]ncc45)nc(N4CCOCC4)c3s2)CC1"
  IC50: "100 to 1000 nM"

Sample `CC(C)=CC(=O)CCC(=O)NCCS(=O)(=O)N1CCN(Cc2cc3nc(-c4cccc(O)c4)nc(N4CCOCC4)c3s2)CC1` — what was its IC50?
100 to 1000 nM

Sample `C=C(C)C(=O)CCCC(=O)N1CCN(Cc2cc3nc(-c4cccc5[nH]ncc45)nc(N4CCOCC4)c3s2)CC1` — what was its IC50?
10 to 100 nM

---

# MEASUREMENT TARGET: PI3Kγ (p120γ) (Homo sapiens, UniProt P48736)
# Construct: purchased BPS Bioscience (San Diego, Calif.) or Millipore (Billerica, Mass.)
# Sequence (P48736 whole entry): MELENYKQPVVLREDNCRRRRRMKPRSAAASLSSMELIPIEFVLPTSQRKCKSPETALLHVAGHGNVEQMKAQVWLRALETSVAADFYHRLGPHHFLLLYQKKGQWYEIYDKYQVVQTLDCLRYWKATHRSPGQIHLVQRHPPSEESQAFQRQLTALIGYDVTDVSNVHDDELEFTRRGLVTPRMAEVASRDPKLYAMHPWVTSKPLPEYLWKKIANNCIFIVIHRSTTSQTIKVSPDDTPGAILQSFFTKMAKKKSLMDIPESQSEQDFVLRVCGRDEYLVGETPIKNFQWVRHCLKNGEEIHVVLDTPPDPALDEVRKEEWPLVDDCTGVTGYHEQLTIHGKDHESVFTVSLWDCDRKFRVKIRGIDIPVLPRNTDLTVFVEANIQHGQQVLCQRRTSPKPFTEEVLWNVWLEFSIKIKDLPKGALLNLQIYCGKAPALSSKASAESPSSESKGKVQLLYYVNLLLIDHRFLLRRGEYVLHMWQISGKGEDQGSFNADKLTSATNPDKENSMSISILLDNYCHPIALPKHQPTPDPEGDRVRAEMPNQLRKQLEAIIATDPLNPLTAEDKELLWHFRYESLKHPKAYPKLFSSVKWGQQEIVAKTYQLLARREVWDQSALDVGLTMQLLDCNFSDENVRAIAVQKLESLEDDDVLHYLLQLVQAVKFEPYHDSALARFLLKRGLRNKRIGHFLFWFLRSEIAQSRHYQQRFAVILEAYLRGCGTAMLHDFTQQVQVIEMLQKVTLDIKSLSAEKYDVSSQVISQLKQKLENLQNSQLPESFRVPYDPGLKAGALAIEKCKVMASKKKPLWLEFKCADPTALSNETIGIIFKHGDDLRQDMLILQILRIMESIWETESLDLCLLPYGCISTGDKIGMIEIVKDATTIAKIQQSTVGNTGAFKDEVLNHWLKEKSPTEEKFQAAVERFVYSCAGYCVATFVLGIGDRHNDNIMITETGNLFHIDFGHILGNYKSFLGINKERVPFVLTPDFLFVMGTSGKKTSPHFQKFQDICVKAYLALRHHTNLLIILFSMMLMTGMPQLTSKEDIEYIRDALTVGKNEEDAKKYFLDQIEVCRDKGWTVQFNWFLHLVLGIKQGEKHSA
# PROTOCOL SUMMARY: HTRF assay, potency against active PI3Kγ
# Format: biochemical
# CONDITION DETAILS: [ATP]=50 μM, [di-C8-PIP2]=10 μM, 30 min pre-incubation, read-out: PI3Kγ Inhibition
pIC50: −log10 of the molar value.
ASSAY READOUT: pIC50

Provide the documented pIC50 with PI3Kγ (p120γ) (Homo sapiens, UniProt P48736) as the system for `CC(C)(C)/C=C\C(=O)CC[C@H](NC(=O)OC(C)(C)C)C(=O)N1CCN(Cc2cc3nc(-c4cccc5[nH]ncc45)nc(N4CCOCC4)c3s2)CC1`
< 6.00

Provide the documented pIC50 with PI3Kγ (p120γ) (Homo sapiens, UniProt P48736) as the system for `C=C(C)C(=O)CCC(=O)NCC(=O)N1CCN(Cc2cc3nc(-c4cccc5[nH]ncc45)nc(N4CCOCC4)c3s2)CC1`
< 6.00

Provide the documented pIC50 with PI3Kγ (p120γ) (Homo sapiens, UniProt P48736) as the system for `O=C(/C=C/CNC(=O)CCCC(=O)NCCCOCCOCCOCCCNC(=O)CCCC[C@@H]1SC[C@@H]2NC(=O)N[C@@H]21)CCC(=O)N1CCN(Cc2cc3nc(-c4cccc5[nH]ncc45)nc(N4CCOCC4)c3s2)CC1`
< 6.00

---

# MEASUREMENT TARGET: PI3Kα (p110α/p85α) (Homo sapiens, UniProt P42336)
# PROTOCOL SUMMARY: HTRF assay, potency against active PI3Kα
# CONDITION DETAILS: HTRF; [ATP]=50 μM, [di-C8-PIP2]=10 μM; 30 min pre-incubation; read-out: PI3Kα Inhibition
pIC50: −log10 of the molar value.
In this section, each of the molecules is paired with its reported pIC50.

For orientation, consider the following solved cases.
- CPD SMILES: "C=CC(=O)Nc1ccc(CN2CCC(n3ncc4c(N5CCOCC5)nc(-c5ccc(NC(=O)NC)cc5)nc43)CC2)cc1"
  MEASUREMENT TARGET: "PI3Kα (p110α/p85α) (Homo sapiens, UniProt P42336)"
  RESULT: "6.00 to 7.00"
- CPD SMILES: "CC(C)=CC(=O)CCC(=O)N1CC=C(c2cc3nc(-c4cnc(N)nc4)nc(N4CCOCC4)c3s2)CC1"
  MEASUREMENT TARGET: "PI3Kα (p110α/p85α) (Homo sapiens, UniProt P42336)"
  RESULT: "7.00 to 8.00"
- CPD SMILES: "CC(C)OC/C=C/C(=O)CCC(=O)N1CCN(Cc2cc3nc(-c4cccc5[nH]ncc45)nc(N4CCOCC4)c3s2)CC1"
  MEASUREMENT TARGET: "PI3Kα (p110α/p85α) (Homo sapiens, UniProt P42336)"
  RESULT: "7.00 to 8.00"
- CPD SMILES: "C/C=C/C(=O)CCCC(=O)N1CC=C(c2cc3nc(-c4cccc5[nH]ncc45)nc(N4CCOCC4)c3s2)CC1"
  MEASUREMENT TARGET: "PI3Kα (p110α/p85α) (Homo sapiens, UniProt P42336)"
  RESULT: "7.00 to 8.00"
- CPD SMILES: "CC(C)=CC(=O)c1ccc(CCNC(=O)c2cc(-c3cnc(N)nc3C)nc(N3CCOCC3)c2)cc1"
  MEASUREMENT TARGET: "PI3Kα (p110α/p85α) (Homo sapiens, UniProt P42336)"
  RESULT: "6.00 to 7.00"

Provide the documented pIC50 with PI3Kα (p110α/p85α) (Homo sapiens, UniProt P42336) as the system for `CC(C)=CC(=O)CCCC(=O)NCC#Cc1cc(-c2cnc(N)nc2)nc(N2CCOCC2)c1`
6.00 to 7.00

Provide the documented pIC50 with PI3Kα (p110α/p85α) (Homo sapiens, UniProt P42336) as the system for `O=C(/C=C/c1ccccc1)CCC(=O)N1CCN(C(=O)c2cc3nc(-c4cccc5[nH]ncc45)nc(N4CCOCC4)c3s2)CC1`
> 8.00

---

In this section, each of the molecules is paired with its reported IC50.
# MEASUREMENT TARGET: PI3Kα (p110α/p85α) (Homo sapiens, UniProt P42336)
# PROTOCOL SUMMARY: HTRF assay, potency against active PI3Kα
# CONDITION DETAILS: HTRF; [ATP]=50 μM, [di-C8-PIP2]=10 μM; 30 min pre-incubation; read-out: PI3Kα Inhibition

Sample CC(C)=CC(=O)C(=O)N1CCN(c2cc(C)c(-c3cc(-c4cnc(N)nc4)nc(N4CCOCC4)c3)cn2)CC1 [XII-26] — what was its IC50?
10 to 100 nM

Sample C=CC(=O)NCCOCCOc1ccc2c(c1OC)N=C(NC(=O)c1cccnc1)N1CCN=C21 [IX-1] — what was its IC50?
10 to 100 nM

Sample CC(C)=CC(=O)C1(C(=O)N2CC=C(C#Cc3cc(-c4cnc(N)nc4)nc(N4CCOCC4)c3)CC2)CC1 [XII-37] — what was its IC50?
10 to 100 nM

Sample C=CC(=O)Nc1ccc(CCNC(=O)c2cc(-c3cnc(N)nc3)nc(N3CCOCC3)c2)cc1 [XII-2] — what was its IC50?
10 to 100 nM

Sample CC(C)=CC(=O)C(=O)N1CCN(c2ccc(-c3cc(-c4cnc(N)nc4)nc(N4CCOCC4)c3)cn2)CC1 [XII-25] — what was its IC50?
10 to 100 nM

Sample CC(C)=CC(=O)CCC(=O)N1CCN(C(=O)c2cc3nc(-c4cccc5[nH]ncc45)nc(N4CCOCC4)c3s2)CC1 [II-a-160] — what was its IC50?
100 to 1000 nM

Sample CC(C)=CC(=O)CCCC(=O)N1CCN(c2cc(-c3cnc(N)nc3)nc(N3CCOCC3)c2)CC1 [XII-30] — what was its IC50?
100 to 1000 nM

---

# Tested on: Phospho-Akt(Ser473)
# PROTOCOL SUMMARY: Dose response in SKOV3 cells as determined by Western blot
# Assay type: cell-based
# CONDITION DETAILS: Homo sapiens, SK-OV-3, 1 hr, Phospho-Akt normalized to total Akt, read-out: Immunoblot
pEC50: −log10 of the molar value.
ASSAY READOUT: pEC50

For orientation, consider the following solved cases.
- CPD SMILES: "O=C(/C=C/c1ccccc1)CCC(=O)N1CCN(C(=O)c2cc3nc(-c4cccc5[nH]ncc45)nc(N4CCOCC4)c3s2)CC1"
  MEASUREMENT TARGET: "Phospho-Akt(Ser473)"
  pEC50: "7.00 to 8.00"
- CPD SMILES: "C/C=C/C(=O)CCC(=O)N1CCC(C#Cc2cc3nc(-c4cccc(O)c4)nc(N4CCOCC4)c3s2)CC1"
  MEASUREMENT TARGET: "Phospho-Akt(Ser473)"
  pEC50: "7.00 to 8.00"

Provide the documented pEC50 with Phospho-Akt(Ser473) as the system for `O=C(/C=C/c1ccccc1)CCC(=O)N1CCN(Cc2cc3nc(-c4cccc5[nH]ncc45)nc(N4CCOCC4)c3s2)CC1`
7.00 to 8.00

Provide the documented pEC50 with Phospho-Akt(Ser473) as the system for `CC(C)=CC(=O)CCC(=O)N1CCN(Cc2cc3nc(-c4cccc5[nH]ncc45)nc(N4CCOCC4)c3s2)CC1`
7.00 to 8.00

Provide the documented pEC50 with Phospho-Akt(Ser473) as the system for `C=CC(=O)NCc1cccc(-c2cc3nc(-c4cccc(O)c4)nc(N4CCOCC4)c3s2)c1`
7.00 to 8.00
